Measured IC50 (PDE3A (Homo sapiens))
observedProperty: IC50 (nM)

• Cc1cc(=O)[nH]c2ccc(OCCCC(=O)N3CCC(C)CC3)cc12 = 2000
• Cc1cc(=O)[nH]c2ccc(OCCCC(=O)N3CCC(O)CC3)cc12 = 1000

The measurements presented in this section are drawn from paper PMC5569452.
